System: A549
Experiment: Antiproliferative activity against human A549 cells assessed as reduction in cell growth measured for 72 hrs by MTT assay
Type: functional, cell-based
Conditions: A549, 72 h
ENDPOINT NAME: IC50 (nM)
Form entry: value (nM) — number only.

O=C1CCN(Cc2cn(-c3ccccc3F)nn2)C2(CCCCC2)c2ccccc21 yielded IC50 of 1950

###

Experiment: Cytotoxicity against human WI-38 cells assessed as reduction in cell viability incubated for 48 hrs by MTT assay
Format: toxicity, cell-based
ENDPOINT NAME: IC50 at 48 h (µM)
The response must be a number in µM with no trailing unit.

Note to self: IC50 at 48 h recorded for Cc1cc(C)n(S(=O)(=O)c2ccc3[nH]c(=O)c(=O)[nH]c3c2)n1 was 81.7

###

Test system: A549
Experiment: Antiproliferative activity against human A549 cells assessed as reduction in cell growth incubated for 72 hrs by CCK-8 assay
Format: functional, cell-based
Settings: A549, 72 h
ENDPOINT NAME: IC50 (nM)
// note: answer is a bare numeric in nM

Noted for O=C(CCCc1ccc(N(CCCl)CCCl)cc1)N1CCN(C(=O)c2cc(Cc3n[nH]c(=O)c4ccccc34)ccc2F)CC1 : its IC50 reads 1620

###

Target: UniProtKB P09874
Assay: Inhibition of human recombinant PARP1 expressed in Escherichia coli BL21(DE3)
Overview of recorded IC50 for various compounds
The reply should be a number in nM, with the unit left off.

INSERT INTO results (compound, measured_on, u, endpoint_value) VALUES
  ('Cc1ccoc1C(=O)N1CCN(C(=O)c2ccc(-c3nc4c(C(N)=O)cccc4[nH]3)cc2)C(C)C1 (configuration not stated)', 'UniProtKB P09874', 'nM', 16.3);

Then this compound:
Notebook: NC(=O)c1cccc2[nH]c(-c3ccc(C(=O)NC4CCN(C(=O)c5ccc(Cl)o5)C4)cc3)nc12 (configuration not stated) , IC50 read as 8.65

###

Tested on: MCF7
Assay: Anticancer activity against human MCF7 cells assessed as reduction in cell viability
Format: functional, cell-based
Entries and their measured pIC50 follow.
Please note pIC50 is a logarithmic value: minus log10 of concentration in mol/L. Answer with that number alone.

INSERT INTO assay_data (chem_smiles, endpoint_name, endpoint_value) VALUES
  ('CCOC(=O)CO/N=C(\N)c1ccccc1', 'pIC50', 6.10);

pIC50 reading for CCOC(=O)CO/N=C(\N)c1ccc(C)cc1 : 6.49

###

Test system: MDA-MB-436
Test: Cytotoxicity against human MDA-MB-436 cells assessed as reduction in cell viability incubated for 24 hrs by MTS assay
Assay type: functional, cell-based
Settings: MDA-MB-436, 24 h
ENDPOINT NAME: pIC50
Give only the number. pIC50 is defined as minus log10 of concentration in molar units.

Consider NC(=O)c1cccc2[nH]c(C3CCN(C4CCC(F)(F)CC4)CC3)nc12 . Its measured pIC50 is 4.55

###

Assay: Microsomal stability in rat liver microsomes assessed as half life measured for 48 hrs by LC-MS/MS analysis
Assay type: ADME, Microsome
ENDPOINT NAME: half-life

Noted for NC(=O)c1cccc2[nH]c(C3CCN(C4CCC(F)(F)CC4)CC3)nc12 : its half-life reads > 16.7 h

###

Target: Poly [ADP-ribose] polymerase 1 (Homo sapiens, UniProt P09874)
Sequence (P09874 whole entry): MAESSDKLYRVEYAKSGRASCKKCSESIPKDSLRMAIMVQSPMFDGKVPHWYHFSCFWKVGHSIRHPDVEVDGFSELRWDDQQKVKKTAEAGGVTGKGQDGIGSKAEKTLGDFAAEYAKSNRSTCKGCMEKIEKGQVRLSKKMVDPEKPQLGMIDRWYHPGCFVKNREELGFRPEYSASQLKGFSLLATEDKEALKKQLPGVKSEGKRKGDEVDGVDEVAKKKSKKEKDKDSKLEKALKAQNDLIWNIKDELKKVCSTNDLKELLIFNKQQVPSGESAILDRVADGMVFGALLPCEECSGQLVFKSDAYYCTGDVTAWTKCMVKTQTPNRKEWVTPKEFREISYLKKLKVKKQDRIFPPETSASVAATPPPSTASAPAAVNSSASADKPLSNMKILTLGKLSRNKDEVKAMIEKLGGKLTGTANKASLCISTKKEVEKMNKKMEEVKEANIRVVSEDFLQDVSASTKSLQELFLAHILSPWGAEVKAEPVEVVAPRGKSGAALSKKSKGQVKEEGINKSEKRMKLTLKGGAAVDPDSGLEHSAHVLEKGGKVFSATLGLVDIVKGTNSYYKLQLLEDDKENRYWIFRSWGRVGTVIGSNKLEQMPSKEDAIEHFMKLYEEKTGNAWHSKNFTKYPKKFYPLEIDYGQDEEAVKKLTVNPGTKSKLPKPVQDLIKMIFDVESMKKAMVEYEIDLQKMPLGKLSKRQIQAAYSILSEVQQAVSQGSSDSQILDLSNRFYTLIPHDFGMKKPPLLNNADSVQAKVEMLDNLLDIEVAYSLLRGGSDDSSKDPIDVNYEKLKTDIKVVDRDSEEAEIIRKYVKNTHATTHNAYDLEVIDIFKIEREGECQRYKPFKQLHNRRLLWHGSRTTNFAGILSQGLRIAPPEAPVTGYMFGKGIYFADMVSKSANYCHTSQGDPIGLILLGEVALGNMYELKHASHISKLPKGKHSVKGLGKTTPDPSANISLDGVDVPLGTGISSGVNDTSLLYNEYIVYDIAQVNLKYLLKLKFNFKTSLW
Experiment: Inhibition of human PARP1
ENDPOINT NAME: IC50 (nM)
Numeric only. Scale: nM

Data point: Cc1c(C(=O)/C=C/c2cccc([N+](=O)[O-])c2)nnn1-c1ccc(Br)cc1 ; IC50 = 3.15

The molecule listed as Cc1cc(C)n(S(=O)(=O)c2ccc3[nH]c(=O)c(=O)[nH]c3c2)n1 shows IC50 equal to 4.4

###

System: Panel NCI-60 (60 carcinoma cell lines)
Assay: Cytotoxicity against human Panel NCI-60 (60 carcinoma cell lines)
Format: functional, cell-based
ENDPOINT NAME: pIC50
Reminder that pIC50 is minus the log10 of a molar concentration.

Briefly, pIC50 measured for CC(=O)c1nnn(-c2ccc(Br)cc2)c1C : 7.75

###

Experiment: Cytotoxicity against African green monkey Vero cells
Format: toxicity, cell-based, Chlorocebus sabaeus
ENDPOINT NAME: IC50 (µM)
Give the number; µM is assumed, so skip it.

INSERT INTO results (chem_smiles, endpoint_name, u, endpoint_value) VALUES
  ('CCOC(=O)CO/N=C(\N)c1ccc(C)cc1', 'IC50', 'µM', 0.48);

Turning now to a further molecule:
The molecule listed as CCOC(=O)CO/N=C(\N)c1ccccc1 shows IC50 equal to 6.76
